# Target Or System: T1, eukaryotic translation initiation factor 4E (eIF4E), full length human (human, UniProt P06730 2-217)
# T1 construct: mature; read as P06730; also called eIF4E protein
# T1 sequence (P06730 2-217): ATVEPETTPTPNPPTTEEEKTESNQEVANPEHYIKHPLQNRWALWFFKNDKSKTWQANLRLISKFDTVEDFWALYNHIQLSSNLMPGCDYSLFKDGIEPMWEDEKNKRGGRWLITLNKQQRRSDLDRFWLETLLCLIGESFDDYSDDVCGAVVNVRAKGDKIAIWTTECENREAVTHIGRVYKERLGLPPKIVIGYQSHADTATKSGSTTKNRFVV
# Protocol Summary: ITC, peptide titrated into eIF4E, 20 °C, PBS, one-to-one binding model
Ends that are not written are not given here.
Assay Endpoint: pKd
In textbook form, pKd equals minus log to base ten of the concentration in mol/L.

Request: Record request: pKd value, item YDREFLLGFQF (not fully specified (C-terminus), also called truncated Tr2) [Tr2 peptide (truncated 11mer eIF4G1 peptide)]
Response: 5.99
